protocol-details: qHTS Assay for inhibitors of the human cytomegalovirus (HCMV)
condition-info: HFF cells, HCMV-luciferase reporter, 72 h; at 57.5 µM
Screen size: about 410,000 compounds; about 18,000 (4.4%) were called active. About 7% were inconclusive and are not listed. Rule as the data show it: active = activity change below about -60%; inconclusive = no clear call, values can overlap the other calls; inactive = above about -39%. This is one part of a sample in which actives are shown more often than they occur.
Please answer using one outcome listed in t (active), f (inactive)

Worked cases, answers included:
Cn1nccc1C(=O)NC1CCCc2c1cnn2-c1ccc(F)cc1F (stereo unspecified): t
Cc1ccccc1OCC(=O)Nc1ccc(N2CCN(C(=O)C(C)C)CC2)c(Cl)c1: f
COc1cc2ccccc2cc1C(=O)Nc1cccc(-c2nc3ccccc3o2)c1: f
CCOC(=O)c1[nH]c(C)c(CCC(=O)NCc2ccccc2C)c1C: f
CCCCC(CC)CNC(=O)C1CCN(S(=O)(=O)c2cccc3nsnc23)CC1 (stereo unspecified): f
Cc1cc(C)c(C)c(S(=O)(=O)N[C@@H](C)C(=O)OC(C)C(=O)NC(N)=O)c1C (stereo partly specified): f
CCOc1ccccc1NC(=S)N1CCN(c2cccc(C)c2C)CC1: f
CCOc1ccccc1NC(=O)c1ccc2c(c1)CCN2S(=O)(=O)c1ccc(C)cc1: f
Cc1cc(C)c2oc(C(=O)Nc3ccc(S(=O)(=O)N4CCCCCC4)cc3)cc(=O)c2c1: f
COc1ccc(Cn2ccnc2SCC(=O)Nc2ccc3c(c2)OCO3)cc1: f

Tell me the recorded outcome of this test for Cn1cc(C(=O)NCc2ccccc2F)cn1 . f
